# assayName: in vitro
# conditionsUsed: rabbit, rabbit erythrocytes
# Description: Hemolytic activity against rabbit erythrocytes incubated for 30 mins in presence of human serum and measured by hemolysis assay
propertyLabel: IC50 at 30 min (nM)
Field: numeric (nM). Do not append units.

Recorded results for 5 molecules are shown here.
>>> measuredresult("CN1CCC(N(C)C(=O)Nc2ccc3c(c2)c(C(N)=O)nn3CC(=O)N(CC(=O)NCc2cccc(Cl)c2F)C2CC2)CC1")
30
>>> measuredresult("NC(=O)c1nn(CC(=O)N(CC(=O)NCc2cccc(Cl)c2F)C2CC2)c2ccc(NC(=O)N3CCN(Cc4ccc(F)cc4)CC3)cc12")
17
>>> measuredresult("NC(=O)c1nn(CC(=O)N(CC(=O)NCc2cccc(Cl)c2F)C2CC2)c2ccc(NC(=O)N3CCCC(F)(F)C3)cc12")
17
>>> measuredresult("CCN(CC)CCNC(=O)Nc1ccc2c(c1)c(C(N)=O)nn2CC(=O)N(CC(=O)NCc1cccc(Cl)c1F)C1CC1")
110
>>> measuredresult("CC(C)(C)OC(=O)Nc1ccc2c(c1)c(C(N)=O)nn2CC(=O)N(CC(=O)NCc1cccc(Cl)c1F)C1CC1")
34

Q) Specify IC50 at 30 min for `CC(C)(C)NC(=O)Nc1ccc2c(c1)c(C(N)=O)nn2CC(=O)N(CC(=O)NCc1cccc(Cl)c1F)C1CC1` and stop.
A) 73

Q) Specify IC50 at 30 min for `COC(=O)c1ccc2c(C(N)=O)nn(CC(=O)N(CC(=O)NCc3cccc(Cl)c3F)C3CC3)c2c1` and stop.
A) 220

Q) Specify IC50 at 30 min for `NC(=O)c1nn(CC(=O)N(CC(=O)NCc2cccc(Cl)c2F)C2CC2)c2ccc(NC(=O)N3CCN(C4CC4)CC3)cc12` and stop.
A) 64

Q) Specify IC50 at 30 min for `NC(=O)c1nn(CC(=O)N(CC(=O)NCc2cccc(Cl)c2F)C2CC2)c2ccc(NC(=O)NC3CCCCC3)cc12` and stop.
A) 76

* * *

# assayName: Cmax in male Sprague-Dawley rat at 2.5 mg/kg, iv
# Type: ADME, organism-based
# Parameters: dose 2.5 mg/kg, route iv
# conditionsUsed: in vivo
propertyLabel: Cmax (ng/mL)
Field: numeric (ng/mL). Do not append units.

Q) Specify Cmax for `NC(=O)c1nn(CC(=O)N2CCC[C@H]2C(=O)NCc2cccc(Cl)c2F)c2ccccc12` and stop.
A) 6740

* * *

# assayName: Half-life in male Sprague-Dawley rat at 10 mg/kg, po
# Assay type: ADME, organism-based
# conditionsUsed: in vivo
Some compounds, each annotated with its measured half-life.
Field: numeric (h). Do not append units.

>>> measuredresult("CN1CCC(N(C)C(=O)Nc2ccc3c(c2)c(C(N)=O)nn3CC(=O)N(CC(=O)NCc2cccc(Cl)c2F)C2CC2)CC1")
1.15

Next item in the queue.
Q) Specify half-life for `NC(=O)c1nn(CC(=O)N2CCC[C@H]2C(=O)NCc2cccc(Cl)c2F)c2ccccc12` and stop.
A) 3.68

* * *

Some molecules, each annotated with its measured Tmax.
# assayName: Tmax in male Sprague-Dawley rat at 10 mg/kg, po
# Format: ADME, organism-based
# conditionsUsed: in vivo
Field: numeric (min). Do not append units.

>>> measuredresult("NC(=O)c1nn(CC(=O)N2CCC[C@H]2C(=O)NCc2cccc(Cl)c2F)c2ccccc12")
30

Next item in the queue.
Q) Specify Tmax for `CN1CCC(N(C)C(=O)Nc2ccc3c(c2)c(C(N)=O)nn3CC(=O)N(CC(=O)NCc2cccc(Cl)c2F)C2CC2)CC1` and stop.
A) 30

* * *

# assayName: Initial plasma concentration in male Sprague-Dawley rat at 2.5 mg/kg, iv
# Assay type: ADME, organism-based
propertyLabel: C0 (ng/mL)
Field: numeric (ng/mL). Do not append units.

Q) Specify C0 for `CN1CCC(N(C)C(=O)Nc2ccc3c(c2)c(C(N)=O)nn3CC(=O)N(CC(=O)NCc2cccc(Cl)c2F)C2CC2)CC1` and stop.
A) 9650

* * *

# assayName: Tmax in male Sprague-Dawley rat at 2.5 mg/kg, iv
# Assay type: ADME, organism-based
# conditionsUsed: in vivo
propertyLabel: Tmax (min)
Field: numeric (min). Do not append units.

Q) Specify Tmax for `NC(=O)c1nn(CC(=O)N2CCC[C@H]2C(=O)NCc2cccc(Cl)c2F)c2ccccc12` and stop.
A) 4.98

* * *

# assayName: AUClast in male Sprague-Dawley rat at 2.5 mg/kg, iv
# Type: ADME, organism-based
# Design: time 0 - last, dose 2.5 mg/kg, route iv
# conditionsUsed: in vivo
propertyLabel: AUC(0-t) (ng·h/mL)
Field: numeric (ng·h/mL). Do not append units.

Q) Specify AUC(0-t) for `CN1CCC(N(C)C(=O)Nc2ccc3c(c2)c(C(N)=O)nn3CC(=O)N(CC(=O)NCc2cccc(Cl)c2F)C2CC2)CC1` and stop.
A) 3130

* * *

# assayName: AUClast in male Sprague-Dawley rat at 10 mg/kg, po
# Type: ADME, organism-based
# Set-up: time 0 - last, dose 10 mg/kg, route po
# conditionsUsed: in vivo
propertyLabel: AUC(0-t)
Please state the number and follow it with the unit.

Q) Specify AUC(0-t) for `CN1CCC(N(C)C(=O)Nc2ccc3c(c2)c(C(N)=O)nn3CC(=O)N(CC(=O)NCc2cccc(Cl)c2F)C2CC2)CC1` and stop.
A) 209 ng·h/mL

* * *

# assayName: MRTlast in male Sprague-Dawley rat at 10 mg/kg, po
# Assay type: ADME, organism-based
# conditionsUsed: in vivo
propertyLabel: MRT last (h)
Field: numeric (h). Do not append units.

Q) Specify MRT last for `CN1CCC(N(C)C(=O)Nc2ccc3c(c2)c(C(N)=O)nn3CC(=O)N(CC(=O)NCc2cccc(Cl)c2F)C2CC2)CC1` and stop.
A) 1.98

* * *

# assayName: Cmax in male Sprague-Dawley rat at 10 mg/kg, po
# Type: ADME, organism-based
# Design: dose 10 mg/kg, route po
# conditionsUsed: in vivo
propertyLabel: Cmax

>>> measuredresult("CN1CCC(N(C)C(=O)Nc2ccc3c(c2)c(C(N)=O)nn3CC(=O)N(CC(=O)NCc2cccc(Cl)c2F)C2CC2)CC1")
"113 ng/mL"

Next item in the queue.
Q) Specify Cmax for `NC(=O)c1nn(CC(=O)N2CCC[C@H]2C(=O)NCc2cccc(Cl)c2F)c2ccccc12` and stop.
A) 69.3 ng/mL
